biological target: T1, proTGF-α-hFc (human, UniProt P01135 24-89); assay: solid phase ELISA, proTGFα-hFc on plate
T1 construct: not shown: Fc portion of human immunoglobulin G1, fused on the C-terminal side
Result type: OD (solid phase ELISA) (OD)
Write the value in OD as a bare number.

Entry under review: MBL352-34 (antibody, mouse IgG1, V domains shown) VH: VQLQQSGAELVRPGASVKLSCTASGFNIKDDYMHWVKQRPEQGLEWIGRIDPANGHTKYAPKFQDKATITADTSSNTAYLQFSSLTSEDTAVYYCTRMGLRRGYWGQGTTLTVSS VL: IQMTQSSSSLSVSLGDRVTITCKASEHINSWLAWYQQKPGNAPRLLISGATNLKTGVPSRFSGSASGKDYTLSITSLQTEDVATYYCQQYWGTPWTFGGGTKLEIK . Reported OD (solid phase ELISA)?
1.35

src = patent US20130131322A1
